# Assayed target: Cytochrome P450 2C19 (Homo sapiens)
# Assay text: qHTS Assay for Inhibitors and Substrates of Cytochrome P450 2C19 (AID 899); further: nearly all actives have a fitted effect of over 60% in size
# Measurement parameters: recombinant CYP2C19, luciferin-H EGE luminescence; series mostly up to 57.1 µM
Records with an inconclusive call do not appear. Calls of active or inactive are those of the source. The call rests on the fitted dose curve; in most records, active means well fitted inhibition curve with a large enough effect; inconclusive means small, poorly fitted or top-dose-only effect; inactive means no such curve, though single readings can be large or run the other way.
Answer with one of the outcomes active, inactive

For CC(=O)NCCc1c[nH]c2ccccc12 , what call appears in the results of this test?
inactive

For COc1cc2c(cc1OC)[C@@H]1C(=O)c3ccc4c(c3O[C@@H]1CO2)C=CC(C)(C)O4 , what call appears in the results of this test?
active

For CC1=NN=C(c2ccc(N)cc2)c2cc3c(cc2C1)OCO3 , what call appears in the results of this test?
active

For CCCN1CCO[C@@H]2c3cc(O)ccc3OC[C@H]21 , what call appears in the results of this test?
inactive

For O=c1cccc2n1CC1CNC[C@H]2C1 , what call appears in the results of this test?
inactive

For NC(=O)c1ccc(-c2nc(-c3ccc4c(c3)OCO4)c(-c3ccccn3)[nH]2)cc1 , what call appears in the results of this test?
active

Others:
For Cc1nccc2c1[nH]c1ccccc12 , what call appears in the results of this test?
inactive

====

# Assay text: qHTS drug screen for cell cycle checkpoint inhibitors in PARPi-resistant BRCA-mutant ovarian cancer cell lines. (AID 1963452)
# Measurement parameters: PEO1/OlaR viability, CellTiter-Glo luminescence, 96 h; stronger effect = lower value
Readout label: Z-AUC
I'd appreciate a reply containing only the number, no unit.

A selection of reference data follows.
Entry under review: C[C@]12CC[C@H]3[C@@H](CCC4=CC(=O)CC[C@@]43C)[C@H]1CC[C@H]2OC(=O)CCC1CCCC1 . Reported Z-AUC?
-0.757

Entry under review: C[C@]12CC[C@@H]3[C@@H](CCC4=CC(=O)CC[C@@H]43)[C@@H]1CC[C@@H]2OC(=O)CCc1ccccc1 . Reported Z-AUC?
-0.102

Entry under review: CC(C)[C@H]1C(=O)N[C@H](CO)Cc2c[nH]c3cccc(c23)N1C . Reported Z-AUC?
0.277

Entry under review: CCN(CC)C(=O)c1ccc(C2=CC3(CCNCC3)Oc3cccc(O)c32)cc1 . Reported Z-AUC?
-0.151

Entry under review: CCOC(=O)c1c(C(C#N)=CN)c2ccc(Cl)c(Cl)c2n1C . Reported Z-AUC?
0.895

Others:
Entry under review: CCN1C[C@]2(OC(=O)c3ccccc3NC(C)=O)CC[C@H](OC)[C@@]34[C@H]5CC6[C@@H](OC)C[C@](O)(C(C[C@@H]23)[C@@H]14)[C@@]5(O)[C@@H]6OC . Reported Z-AUC?
0.577

Entry under review: Cc1ccccc1-n1c(Cn2cnc3c(N)ncnc32)nc2cccc(C)c2c1=O . Reported Z-AUC?
-0.47

====

# Assay text: Immunotoxin (HA22) sensitization/mitigation study. Vehicle arm (PBS) (AID 1159510)
# Measurement parameters: cancer cells viability with PBS vehicle (HA22 study); series mostly up to 46.1 µM
The source made the active and inactive calls. The rule behind the calls is not given here.
Answer with one of the outcomes YES = active, NO = inactive

For CC(=O)Nc1ccc([C@H](C)C(=O)Nc2ncc(C(C)C)s2)cc1 , what call appears in the results of this test?
YES

Others:
For C=CC(=O)Nc1cccc(Oc2nc(Nc3ccc(N4CCN(C)CC4)cc3OC)ncc2Cl)c1 , what call appears in the results of this test?
YES

For COc1cc(Nc2ncc(F)c(Nc3ccc4c(n3)NC(=O)C(C)(C)O4)n2)cc(OC)c1OC , what call appears in the results of this test?
YES
